Recorded self-splicing fitness (ln), one value per entry.
Experiment: self-splicing fitness, log relative to wild type (ln ratio); higher = more splicing; Tetrahymena group I intron in knt gene, E. coli kanamycin selection, DiMSum; sequences stand for … in CUCUCU…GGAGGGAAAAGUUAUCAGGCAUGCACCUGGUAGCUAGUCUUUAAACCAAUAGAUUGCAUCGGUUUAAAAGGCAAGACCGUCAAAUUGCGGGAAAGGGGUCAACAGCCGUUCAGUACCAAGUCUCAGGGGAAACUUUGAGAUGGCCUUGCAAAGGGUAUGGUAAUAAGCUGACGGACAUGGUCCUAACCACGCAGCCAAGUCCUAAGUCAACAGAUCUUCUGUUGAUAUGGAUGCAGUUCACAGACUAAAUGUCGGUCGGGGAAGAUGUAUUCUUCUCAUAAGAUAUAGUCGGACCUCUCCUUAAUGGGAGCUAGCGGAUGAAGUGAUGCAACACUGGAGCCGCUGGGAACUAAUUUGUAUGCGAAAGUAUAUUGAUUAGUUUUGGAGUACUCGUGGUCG;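 note: selection with 25 µg/mL kanamycin versus none on LB agar overnight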
Conditions: 37 °C
Enter a number only.

In the examples that follow, each entry is paired with its recorded self-splicing fitness (ln).
GUGCAGCAAUAUUACGCUGC -2.14
AAGAAGCAAUAUUACGGUCA 0.197
CAAUAGCAAUAUUACGCCCG -0.0129

In plain terms, "AUUUAGCAAUAUUACGAUCC" has a documented self-splicing fitness (ln) of -0.408

----------
// reported self-splicing fitness (ln) for each item listed
Test: self-splicing fitness, log relative to wild type (ln ratio); higher = more splicing; Tetrahymena group I intron in knt gene, E. coli kanamycin selection, DiMSum; sequences stand for … in CUCUCU…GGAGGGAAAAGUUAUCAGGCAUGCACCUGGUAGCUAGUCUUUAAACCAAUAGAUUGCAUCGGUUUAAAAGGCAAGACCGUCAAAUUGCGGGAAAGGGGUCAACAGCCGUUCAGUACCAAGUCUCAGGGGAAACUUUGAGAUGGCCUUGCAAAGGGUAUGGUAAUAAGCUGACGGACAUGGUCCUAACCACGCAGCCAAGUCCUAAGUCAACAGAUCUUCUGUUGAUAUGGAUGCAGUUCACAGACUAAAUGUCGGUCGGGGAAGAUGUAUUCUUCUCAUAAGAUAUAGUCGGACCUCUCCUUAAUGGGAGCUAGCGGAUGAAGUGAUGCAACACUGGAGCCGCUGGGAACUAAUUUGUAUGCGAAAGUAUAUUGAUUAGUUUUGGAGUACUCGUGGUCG
Conditions: 37 °C
The response must contain the number and no unit.

Item: "CAACAGCAAUAUUACGACAU" | self-splicing fitness (ln): -1.04

// "GGCGAGCAAUAUUACGCAAC" : self-splicing fitness (ln) value = -0.673

----------
Assay: self-splicing fitness, log relative to wild type (ln ratio); higher = more splicing; Tetrahymena group I intron in knt gene, E. coli kanamycin selection, DiMSum; sequences stand for … in CUCUCU…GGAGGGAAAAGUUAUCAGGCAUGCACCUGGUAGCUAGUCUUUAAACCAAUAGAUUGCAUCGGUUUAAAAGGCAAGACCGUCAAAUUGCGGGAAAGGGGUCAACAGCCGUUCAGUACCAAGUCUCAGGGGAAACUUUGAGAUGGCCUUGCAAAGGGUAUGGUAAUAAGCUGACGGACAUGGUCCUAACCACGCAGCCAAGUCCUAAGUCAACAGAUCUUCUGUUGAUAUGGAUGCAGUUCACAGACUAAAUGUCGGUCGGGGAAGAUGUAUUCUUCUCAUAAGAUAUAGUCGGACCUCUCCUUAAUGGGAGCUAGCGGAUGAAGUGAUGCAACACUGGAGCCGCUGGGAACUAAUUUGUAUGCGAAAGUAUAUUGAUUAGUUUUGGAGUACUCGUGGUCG
Conditions: 30 °C
The following sequences are listed with their measured self-splicing fitness (ln) values.
I only need the number, thanks.

UCCUAGCAAUAUUACGGAAU -3.08
UUAGAGCAAUAUUACGCUAC -2.9
GUCUAGCAAUAUUACGAUUA -0.177

# evaluate next
For "ACAUAGCAAUAUUACGUCAC" the sequence record lists self-splicing fitness (ln) as -3.32
